Assignment: determine reported growth, % of control at 10 µM for the given compounds.
- Test system: SK-MEL-28
- ASSAY_INFO: Growth of human SK-MEL-28 cells at 10 uM incubated for 48 hrs by sulforhodamine B assay relative to control
- ASSAY_CONTEXT: SK-MEL-28, 48 h
Numbers only, in %.

Past entries and their recorded results:
> print(dat)
                         compound.structure  measurement
1  CCS/C(Nc1ccccc1)=C(\C#N)C(=O)Nc1ccc(C)cc1          109
2  CCS/C(Nc1ccccc1)=C(\C#N)C(=O)Nc1ccc(OC)cc1         58.9
3  CC(C)(C)S/C(Nc1ccccc1)=C(\C#N)C(=O)Nc1ccccc1          105

The following compounds each have a reported value; give each one's growth, % of control at 10 µM.
1. CC(C)(C)S/C(Nc1ccccc1)=C(\C#N)C(=O)N/N=C\c1ccco1
2. CCS/C(Nc1ccccc1)=C(\C#N)C(=O)N/N=C\c1ccco1

106
109

###

Assignment: determine reported growth, % of control at 10 µM for the given compounds.
- Tested on: M14
- ASSAY_INFO: Growth of human M14 cells at 10 uM incubated for 48 hrs by sulforhodamine B assay relative to control
- ASSAY_CONTEXT: M14, 48 h
Numbers only, in %.

Past entries and their recorded results:
> print(dat)
                         compound.structure  readout.units  measurement
1  CCS/C(Nc1ccccc1)=C(\C#N)C(=O)Nc1ccc(OC)cc1              %         15.2
2    CCS/C(Nc1ccccc1)=C(\C#N)C(=O)Nc1ccccc1              %          128
3  CC(C)(C)S/C(Nc1ccccc1)=C(\C#N)C(=O)Nc1ccccc1              %          100

The following compounds each have a reported value; give each one's growth, % of control at 10 µM.
1. CC(C)(C)S/C(Nc1ccccc1)=C(\C#N)C(=O)N/N=C\c1ccc(Cl)cc1Cl
2. CCS/C(Nc1ccccc1)=C(\C#N)C(=O)N/N=C\c1ccco1
3. CCS/C(Nc1ccccc1)=C(\C#N)C(=O)N/N=C\c1ccc(Cl)cc1Cl
4. CCS/C(Nc1ccccc1)=C(\C#N)C(=O)Nc1ccc(C)cc1
5. CC(C)(C)S/C(Nc1ccccc1)=C(\C#N)C(=O)N/N=C\c1ccco1

[98.5, 99.2, 21, 112, 105]

###

- EXPERIMENTAL_SYSTEM: Histone deacetylase 1 (Homo sapiens)
- Sequence (Q13547 whole entry): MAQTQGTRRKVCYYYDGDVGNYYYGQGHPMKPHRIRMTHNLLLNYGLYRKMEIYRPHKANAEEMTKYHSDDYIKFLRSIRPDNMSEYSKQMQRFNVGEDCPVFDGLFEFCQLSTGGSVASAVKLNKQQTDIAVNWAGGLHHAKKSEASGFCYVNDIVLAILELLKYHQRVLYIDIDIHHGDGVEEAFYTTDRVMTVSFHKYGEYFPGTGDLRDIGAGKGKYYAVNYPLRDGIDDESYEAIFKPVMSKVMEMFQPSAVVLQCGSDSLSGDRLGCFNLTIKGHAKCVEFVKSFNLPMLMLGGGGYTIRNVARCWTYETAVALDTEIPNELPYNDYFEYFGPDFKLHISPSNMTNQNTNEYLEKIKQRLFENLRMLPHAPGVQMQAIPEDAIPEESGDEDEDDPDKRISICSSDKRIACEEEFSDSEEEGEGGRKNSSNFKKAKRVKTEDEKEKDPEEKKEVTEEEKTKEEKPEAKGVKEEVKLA
- ASSAY_INFO: Inhibition of human HDAC1 by ELISA
METRIC_NAME: pIC50
Give bare numbers, as −log10 of the molar value.

> print(dat)
                         compound.structure                   experimental.system  metric.name  measurement
1  CCS/C(Nc1ccccc1)=C(\C#N)C(=O)Nc1ccc(OC)cc1  Histone deacetylase 1 (Homo sapiens)        pIC50         7.42

Here is another compound to look at.
Entry under review: `CCS/C(Nc1ccccc1)=C(\C#N)C(=O)N/N=C\c1ccc(Cl)cc1Cl` . Reported pIC50?
7.15

###

- System: NCI-H226
- ASSAY_INFO: Growth inhibition of human NCI-H226 cells at 10 uM incubated for 48 hrs by sulforhodamine B assay relative to control
- Type: functional
- ASSAY_CONTEXT: NCI-H226, 48 h, values are per cent of control
METRIC_NAME: growth, % of control at 10 µM (%)
Answers are plain numbers, in %.

Past entries and their recorded results:
> print(dat)
                         compound.structure  experimental.system  readout.units  measurement
1  CCS/C(Nc1ccccc1)=C(\C#N)C(=O)Nc1ccc(C)cc1             NCI-H226              %           95
2  CCS/C(Nc1ccccc1)=C(\C#N)C(=O)N/N=C\c1ccc(Cl)cc1Cl             NCI-H226              %         37.7
3  CCS/C(Nc1ccccc1)=C(\C#N)C(=O)Nc1ccc(OC)cc1             NCI-H226              %         57.9
4  CCS/C(Nc1ccccc1)=C(\C#N)C(=O)N/N=C\c1ccco1             NCI-H226              %         95.2
5  CC(C)(C)S/C(Nc1ccccc1)=C(\C#N)C(=O)N/N=C\c1ccco1             NCI-H226              %           92

The following compounds each have a reported value; give each one's growth, % of control at 10 µM.
1. CC(C)(C)S/C(Nc1ccccc1)=C(\C#N)C(=O)N/N=C\c1ccc(Cl)cc1Cl
2. CC(C)(C)S/C(Nc1ccccc1)=C(\C#N)C(=O)Nc1ccccc1
3. CCS/C(Nc1ccccc1)=C(\C#N)C(=O)Nc1ccccc1

[92.6, 88.9, 92.9]

###

Assignment: determine reported growth, % of control at 10 µM for the given compounds.
- Tested on: ACHN
- ASSAY_INFO: Growth inhibition of human ACHN cells at 10 uM incubated for 48 hrs by sulforhodamine B assay relative to control
- Assay type: functional
- ASSAY_CONTEXT: values are per cent of control
One number for each entry, in %.

Past entries and their recorded results:
> print(dat)
                         compound.structure  measurement
1  CCS/C(Nc1ccccc1)=C(\C#N)C(=O)Nc1ccc(OC)cc1         51.9
2    CCS/C(Nc1ccccc1)=C(\C#N)C(=O)Nc1ccccc1          102
3  CCS/C(Nc1ccccc1)=C(\C#N)C(=O)N/N=C\c1ccc(Cl)cc1Cl         38.2
4  CC(C)(C)S/C(Nc1ccccc1)=C(\C#N)C(=O)N/N=C\c1ccco1           98
5  CCS/C(Nc1ccccc1)=C(\C#N)C(=O)Nc1ccc(C)cc1         96.8

The following compounds each have a reported value; give each one's growth, % of control at 10 µM.
1. CC(C)(C)S/C(Nc1ccccc1)=C(\C#N)C(=O)N/N=C\c1ccc(Cl)cc1Cl
2. CC(C)(C)S/C(Nc1ccccc1)=C(\C#N)C(=O)Nc1ccccc1
3. CCS/C(Nc1ccccc1)=C(\C#N)C(=O)N/N=C\c1ccco1

1. 105
2. 103
3. 105

###

Assignment: determine reported growth, % of control at 10 µM for the given molecules.
- Tested on: RPMI-8226
- ASSAY_INFO: Growth of human RPMI8226 cells at 10 uM incubated for 48 hrs by sulforhodamine B assay relative to control
- ASSAY_CONTEXT: RPMI-8226, 48 h
Give bare numbers, in %.

> print(dat)
                         compound.structure                    metric.name  measurement
1  CCS/C(Nc1ccccc1)=C(\C#N)C(=O)Nc1ccc(OC)cc1  growth, % of control at 10 µM         25.2

The following molecules each have a reported value; give each one's growth, % of control at 10 µM.
1. CCS/C(Nc1ccccc1)=C(\C#N)C(=O)Nc1ccc(C)cc1
2. CCS/C(Nc1ccccc1)=C(\C#N)C(=O)N/N=C\c1ccco1

[86, 103]

###

Assignment: determine reported growth, % of control at 10 µM for the given compounds.
- System: T47D
- ASSAY_INFO: Growth inhibition of human T47D cells at 10 uM incubated for 48 hrs by sulforhodamine B assay relative to control
- Type: functional
- ASSAY_CONTEXT: values are per cent of control
One number for each entry, in %.

Past entries and their recorded results:
> print(dat)
                         compound.structure  measurement
1    CCS/C(Nc1ccccc1)=C(\C#N)C(=O)Nc1ccccc1         70.1
2  CC(C)(C)S/C(Nc1ccccc1)=C(\C#N)C(=O)N/N=C\c1ccco1         91.4

Entry under review: `CCS/C(Nc1ccccc1)=C(\C#N)C(=O)Nc1ccc(C)cc1` . Reported growth, % of control at 10 µM?
72.1

###

- System: NCI-H522
- ASSAY_INFO: Growth of human NCI-H522 cells at 10 uM incubated for 48 hrs by sulforhodamine B assay relative to control
- ASSAY_CONTEXT: NCI-H522, 48 h
METRIC_NAME: growth, % of control at 10 µM

The following compounds each have a reported value; give each one's growth, % of control at 10 µM.
1. CC(C)(C)S/C(Nc1ccccc1)=C(\C#N)C(=O)N/N=C\c1ccco1
2. CCS/C(Nc1ccccc1)=C(\C#N)C(=O)Nc1ccc(C)cc1
3. CCS/C(Nc1ccccc1)=C(\C#N)C(=O)N/N=C\c1ccco1
4. CCS/C(Nc1ccccc1)=C(\C#N)C(=O)Nc1ccc(OC)cc1

71.1%
71.2%
75.7%
0.63%

The following compounds each have a reported value; give each one's growth, % of control at 10 µM.
1. CCS/C(Nc1ccccc1)=C(\C#N)C(=O)Nc1ccccc1
2. CCS/C(Nc1ccccc1)=C(\C#N)C(=O)N/N=C\c1ccc(Cl)cc1Cl
3. CC(C)(C)S/C(Nc1ccccc1)=C(\C#N)C(=O)Nc1ccccc1
4. CC(C)(C)S/C(Nc1ccccc1)=C(\C#N)C(=O)N/N=C\c1ccc(Cl)cc1Cl

1: 65.7%; 2: 1.02%; 3: 80.3%; 4: 82.7%

Where these numbers come from: ChEMBL document CHEMBL4145553
